Recorded MIC values for a group of compounds are listed next.
Tested on: E. coli ATCC 25922
Assay: MIC broth microdilution
Assay type: cell-based
Conditions: Escherichia coli, ATCC25922; E. coli ATCC 25922; CAMHB; read-out: MIC
Procedure: Twenty-four test agents were shipped to Micromyx and stored at −20° C. until assayed. The compounds were dissolved in 100% DMSO at 6.46 mg/mL prior to testing. Comparator drugs were supplied by Micromyx and were handled as described below: The test organisms for the assay were recent clinical isolates or reference strains acquired from the American Type Culture Collection (ATCC; Manassas, Va.). […] MIC values were determined using a broth microdilution method as recommended by CLSI. […]

For orientation, consider the following solved cases.
C=C(NC(=O)c1csc(C2=N[C@@H]3c4csc(n4)[C@H]4NC(=O)c5csc(n5)[C@H]([C@](C)(O)[C@@H](C)O)NC(=O)C5CSC(=N5)/C(=C/C)NC(=O)[C@H]([C@@H](C)O)NC(=O)c5csc(n5)[C@]3(CC2)NC(=O)[C@H](C)NC(=O)C(=C)NC(=O)[C@H](C)NC(=O)[C@H]([C@@H](C)CC)N[C@@H]2C=Cc3c([C@H](C)O)cc(nc3[C@H]2O)C(=O)O[C@@H]4C)n1)C(=O)NC(=CNC(=O)c1cccc(/C=N/OCCO)c1)C(N)=O; > 64 µg/mL
C=C(NC(=O)c1csc(C2=N[C@@H]3c4csc(n4)[C@H]4NC(=O)c5csc(n5)[C@H]([C@](C)(O)[C@@H](C)O)NC(=O)C5CSC(=N5)/C(=C/C)NC(=O)[C@H]([C@@H](C)O)NC(=O)c5csc(n5)[C@]3(CC2)NC(=O)[C@H](C)NC(=O)C(=C)NC(=O)[C@H](C)NC(=O)[C@H]([C@@H](C)CC)N[C@@H]2C=Cc3c([C@H](C)O)cc(nc3[C@H]2O)C(=O)O[C@@H]4C)n1)C(=O)NC(=CNC(=O)c1ccc(Br)cc1)C(N)=O; > 64 µg/mL

// below: MIC requested for another compound
Given item C=C(NC(=O)c1csc(C2=N[C@@H]3c4csc(n4)[C@H]4NC(=O)c5csc(n5)[C@H]([C@](C)(O)[C@@H](C)O)NC(=O)C5CSC(=N5)/C(=C/C)NC(=O)[C@H]([C@@H](C)O)NC(=O)c5csc(n5)[C@]3(CC2)NC(=O)[C@H](C)NC(=O)C(=C)NC(=O)[C@H](C)NC(=O)[C@H]([C@@H](C)CC)N[C@@H]2C=Cc3c([C@H](C)O)cc(nc3[C@H]2O)C(=O)O[C@@H]4C)n1)C(=O)NC(=CNC(=O)COCCOC)C(N)=O , the value recorded as its MIC is > 64 µg/mL
